Reference source for all entries: the supplement of paper PMC3334620

The entries below are paired with their reported PBM E-score.
Target: Sko1 (UniProt Q02100)
Sequence: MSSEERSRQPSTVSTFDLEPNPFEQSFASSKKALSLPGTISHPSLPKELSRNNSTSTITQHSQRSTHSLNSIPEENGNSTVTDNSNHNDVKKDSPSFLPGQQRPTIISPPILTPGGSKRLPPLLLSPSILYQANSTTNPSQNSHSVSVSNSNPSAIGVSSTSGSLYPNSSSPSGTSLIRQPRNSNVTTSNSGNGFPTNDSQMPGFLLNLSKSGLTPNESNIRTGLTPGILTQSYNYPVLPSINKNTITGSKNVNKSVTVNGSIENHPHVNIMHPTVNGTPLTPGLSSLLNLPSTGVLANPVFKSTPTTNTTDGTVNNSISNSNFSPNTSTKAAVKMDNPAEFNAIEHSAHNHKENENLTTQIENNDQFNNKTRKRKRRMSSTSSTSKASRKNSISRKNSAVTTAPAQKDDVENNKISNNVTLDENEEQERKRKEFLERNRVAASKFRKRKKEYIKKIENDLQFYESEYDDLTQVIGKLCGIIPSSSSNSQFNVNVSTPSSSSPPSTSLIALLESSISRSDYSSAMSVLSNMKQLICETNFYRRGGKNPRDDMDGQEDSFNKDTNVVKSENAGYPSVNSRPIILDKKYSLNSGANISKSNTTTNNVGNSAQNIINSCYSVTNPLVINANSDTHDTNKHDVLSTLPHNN
Assay: PBM E-score (8-mer binding enrichment) (E-score (-0.5 to 0.5)); higher = stronger / more preferred TF binding
Conditions: protein concentration: 200 nM; construct: GST-full length
Whole data set: some 33,000 sequences, median “E-score (-0.5 to 0.5)” near -0.032, cut for the highest 2% near 0.36. The sample as a whole holds a higher share of the highest values than the screen did.
No unit in the answer, only the number.

- CCGTAAAA: 0.053

Sure, the documented PBM E-score for `AGTAGGAA` is -0.0265

Recorded PBM E-score (sequence `GCGTACAC` ): 0.213

sequence `AAGTAAAG` , PBM E-score observed: -0.152

For reference, reported PBM E-score for `CCGTACAG` stands at -0.22

// PBM E-score value for `AGGTAAAT` : 0.131

# PBM E-score (sequence: `CCGTATAG` ) is -0.115

The sequence listed as `CCGGCCGG` shows PBM E-score equal to -0.373

Reported PBM E-score of `AAGTATAT` : 0.118

sequence `CAGGTTTC` , PBM E-score observed: -0.0189

* * *

List of PBM E-score values.
Biological target: Sko1 (UniProt Q02100)
Sequence: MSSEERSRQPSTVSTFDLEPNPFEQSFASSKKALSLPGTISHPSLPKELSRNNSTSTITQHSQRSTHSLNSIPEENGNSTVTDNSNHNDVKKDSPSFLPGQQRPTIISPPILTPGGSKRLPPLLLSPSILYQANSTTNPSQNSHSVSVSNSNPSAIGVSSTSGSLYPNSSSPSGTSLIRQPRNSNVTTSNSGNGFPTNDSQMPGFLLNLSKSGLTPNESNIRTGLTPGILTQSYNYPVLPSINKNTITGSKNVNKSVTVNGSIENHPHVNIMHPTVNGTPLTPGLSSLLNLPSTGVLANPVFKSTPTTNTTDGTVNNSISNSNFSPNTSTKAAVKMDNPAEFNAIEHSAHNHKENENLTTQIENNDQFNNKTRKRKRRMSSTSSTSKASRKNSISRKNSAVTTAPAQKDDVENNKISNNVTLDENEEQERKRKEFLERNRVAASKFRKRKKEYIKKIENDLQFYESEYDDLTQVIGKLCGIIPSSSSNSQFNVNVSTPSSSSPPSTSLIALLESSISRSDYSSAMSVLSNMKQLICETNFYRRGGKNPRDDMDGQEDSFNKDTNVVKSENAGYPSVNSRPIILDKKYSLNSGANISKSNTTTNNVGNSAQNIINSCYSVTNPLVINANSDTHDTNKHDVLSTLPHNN
Assay: PBM E-score (8-mer binding enrichment) (E-score (-0.5 to 0.5)); higher = stronger / more preferred TF binding
Conditions: protein concentration: 200 nM; construct: GST-full length
In all, about 33,000 sequences were measured (“E-score (-0.5 to 0.5)”: median about -0.032, highest 2% from about 0.36 on). What follows is part of a selection rich in the highest values, with near analogues and random picks from the rest.

- ATTGCGTA: 0.472
- GGACGAAA: -0.0622

# evaluate next
Test item `ATCGTAAC` ; Sko1 (UniProt Q02100); reported PBM E-score was 0.241

* * *

Below, each entry is listed alongside its reported PBM E-score.
Target: Sko1 (UniProt Q02100)
Sequence: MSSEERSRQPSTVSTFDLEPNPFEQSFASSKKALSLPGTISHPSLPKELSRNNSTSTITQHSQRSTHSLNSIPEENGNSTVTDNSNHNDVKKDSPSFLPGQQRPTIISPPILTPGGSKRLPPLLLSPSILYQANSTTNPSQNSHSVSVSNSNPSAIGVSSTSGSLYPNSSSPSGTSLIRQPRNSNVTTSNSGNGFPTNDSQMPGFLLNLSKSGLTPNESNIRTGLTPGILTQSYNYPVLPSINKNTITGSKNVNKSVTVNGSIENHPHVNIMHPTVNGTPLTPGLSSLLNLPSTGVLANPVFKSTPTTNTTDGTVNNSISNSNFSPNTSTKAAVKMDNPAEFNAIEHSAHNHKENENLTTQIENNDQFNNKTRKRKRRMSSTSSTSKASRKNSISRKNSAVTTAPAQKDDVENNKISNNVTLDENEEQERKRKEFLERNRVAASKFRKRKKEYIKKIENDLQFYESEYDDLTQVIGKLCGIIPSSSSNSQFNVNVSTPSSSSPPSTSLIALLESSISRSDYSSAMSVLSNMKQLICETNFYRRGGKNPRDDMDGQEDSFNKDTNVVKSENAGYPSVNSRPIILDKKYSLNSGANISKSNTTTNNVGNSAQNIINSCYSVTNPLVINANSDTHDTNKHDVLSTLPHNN
Assay: PBM E-score (8-mer binding enrichment) (E-score (-0.5 to 0.5)); higher = stronger / more preferred TF binding
Details: protein concentration: 200 nM; construct: GST-full length
The full ranking holds about 33,000 sequences; the median of “E-score (-0.5 to 0.5)” is about -0.032, and the highest 2% start at about 0.36. The sample as a whole holds a higher share of the highest values than the screen did.
The answer should be a number; do not append a unit.

Below are worked cases with known answers.
* GTGGCGTA | 0.325
* ACATCATG | 0.393
* GTTCGTTA | 0.107
* AAATCATA | 0.204
* ATTCGTAA | 0.433
* CTTCGTAA | 0.287

Lookup result for `ATTCGTCG` ; measured PBM E-score: 0.22

Lab note: measured PBM E-score of `GTTCGTGA` was -0.0757

PBM E-score in this record for `CCATCATA` : 0.0672

Field PBM E-score (entry `AATAGCCA` ) reads 0.204

The recorded PBM E-score for `CTTCGTTA` is 0.161

Just so you know, measured PBM E-score for `ATGGCGTA` came out at 0.449

For record `CTTCGTCC` the listed PBM E-score is -0.226

The recorded PBM E-score for `GCATCATA` is 0.366

Form field PBM E-score, entry `GCATCAGA` : 0.113

PBM E-score in this record for `CCATCATC` : 0.0168

Measured PBM E-score of `ACATCACA` : 0.313

According to the records, this sequence `TCGGCTCA` displays PBM E-score of -0.111

The value of PBM E-score measured for the sequence `ACATCATA` turned out to be 0.425

Memo: `CTGGCGTC` , reported PBM E-score: 0.0837

Notebook: `ATGGCGTG` , PBM E-score read as 0.336

Sample `GTTCGTAA` ; PBM E-score observed: 0.355

* * *

Target: Sko1 (UniProt Q02100)
Sequence: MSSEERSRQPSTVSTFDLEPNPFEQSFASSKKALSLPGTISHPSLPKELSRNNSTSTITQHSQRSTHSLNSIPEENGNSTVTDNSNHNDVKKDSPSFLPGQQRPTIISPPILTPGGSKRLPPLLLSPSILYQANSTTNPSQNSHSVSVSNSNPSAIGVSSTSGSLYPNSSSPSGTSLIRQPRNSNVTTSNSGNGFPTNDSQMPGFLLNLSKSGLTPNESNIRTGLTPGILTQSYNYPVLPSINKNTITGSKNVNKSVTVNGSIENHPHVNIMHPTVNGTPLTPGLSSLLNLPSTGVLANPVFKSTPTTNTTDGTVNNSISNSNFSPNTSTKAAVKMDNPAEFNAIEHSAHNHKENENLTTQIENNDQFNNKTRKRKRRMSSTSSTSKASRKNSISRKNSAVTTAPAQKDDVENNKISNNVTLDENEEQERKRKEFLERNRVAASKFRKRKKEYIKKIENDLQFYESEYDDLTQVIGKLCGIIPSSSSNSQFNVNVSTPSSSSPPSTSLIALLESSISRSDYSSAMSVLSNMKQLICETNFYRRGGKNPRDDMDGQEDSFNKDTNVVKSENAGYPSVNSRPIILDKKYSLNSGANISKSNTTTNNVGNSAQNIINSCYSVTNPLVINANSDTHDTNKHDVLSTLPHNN
Test: PBM E-score (8-mer binding enrichment) (E-score (-0.5 to 0.5)); higher = stronger / more preferred TF binding
Settings: protein concentration: 200 nM; construct: GST-full length
Over roughly 33,000 sequences, “E-score (-0.5 to 0.5)” has its median near -0.032; the highest 2% begin near 0.36. This excerpt belongs to a sample that is enriched for the highest values.
Note: every record was labeled by where its PBM E-score sits among lo: < 0.02; mid: ≥ 0.02 and < 0.2; hi: ≥ 0.2

Worked examples follow.
- GCGCAACA: mid
- ACGCCACA: hi
- CACACGCG: mid
- CGCGTCAG: hi
- CCGTCTGA: lo

Here is the next item to consider.
Exam item: assign `GGGCTAAA` to the correct category.
lo
